test system: A549; assay: NCI tumour cell line growth inhibition, 48 h
Active and inactive are the calls of the source. No stated cut-off is given here; in the data, active = GI50 up to about 1.1 µM and inactive = higher.
Can you answer with just one of these options? class 1 for active, class 0 for inactive

Worked examples, 5 molecules total:
molecule	discrete label
O=[N+]([O-])c1cccc(C(O)/C(=N/Nc2ccccc2)C2Nc3ccc([N+](=O)[O-])cc3N=C2O)c1 (stereo not drawn)	class 0
C/C=C/[C@@H]1O[C@H](CC#C[Si](C)(C)C)[C@@]2(C=O)C(C)=CC[C@H](C(C)C)[C@@H]12	class 0
Cc1nn(-c2ccccc2)c2nc3c(c(C)nn3-c3ccccc3)c(-c3ccc(C(F)(F)F)cc3)c12	class 0
C=C1C(=O)O[C@@H]2C(=O)[C@@H](C)[C@@H]3C=CC(=O)[C@@]3(C)[C@@H](OC(=O)/C(C)=C\C)[C@H]12	class 0
CC(=O)Nc1ccc(S(=O)(=O)N/N=C/c2cc(I)cc([N+](=O)[O-])c2O)cc1	class 0

Could you kindly confirm the outcome this assay logged for N#C/C(=C1\OC(=O)C(c2ccc(Br)cc2)=C1O)c1ccc(Br)cc1 ?
class 0

Could you kindly confirm the outcome this assay logged for COc1ccc2nc3c(C)cc4ccccc4n3c2c1 ?
class 0

Could you kindly confirm the outcome this assay logged for COc1cc(C(=O)OCCn2[nH]c(-c3ccc(Cl)cc3)nc2=S)cc(OC)c1OC ?
class 0

Could you kindly confirm the outcome this assay logged for CC1=C(SCCO)C(=O)c2ccccc2C1=O ?
class 0

Could you kindly confirm the outcome this assay logged for CC(=O)OC1CCn2nnc(CO)c21 (stereo not drawn) ?
class 0

Could you kindly confirm the outcome this assay logged for CN(C)CC/C(=N\Nc1c(Cl)cccc1Cl)c1ccccc1 ?
class 0

Could you kindly confirm the outcome this assay logged for Nc1c(-c2cn(Cc3ccccc3)c3ccccc23)[n+]([O-])c2ccccc2[n+]1[O-] ?
class 0

Could you kindly confirm the outcome this assay logged for OC1(c2ccc(-c3ccccc3)cc2)c2ccccc2C2=NCCN21 (stereo not drawn) ?
class 0

Could you kindly confirm the outcome this assay logged for C/C(=C\CC[C@]1(C)OC(C)(C)OC1CC/C(C)=C/CO[Si](c1ccccc1)(c1ccccc1)C(C)(C)C)CC/C=C/CO[Si](C)(C)C(C)(C)C (stereo partly drawn) ?
class 0

Could you kindly confirm the outcome this assay logged for CC(=O)O[C@H]1C(=O)[C@@]2(C)[C@H]([C@H](OC(=O)c3ccccc3)[C@]3(O)C[C@H](OC(=O)[C@H](O)[C@@H](NC(=O)C(C)(C)C)c4ccccc4)C(C)=C1C3(C)C)[C@]1(OC(C)=O)CO[C@@H]1C[C@@H]2O ?
class 1

Could you kindly confirm the outcome this assay logged for Cc1cc(Cl)ccc1NC(=O)C(=O)Cc1nc2ccccc2o1 ?
class 0

Could you kindly confirm the outcome this assay logged for CC(C)=NN/C(=N\c1ccc(Cl)cc1)NS(=O)(=O)c1ccc(C)cc1 ?
class 0

Could you kindly confirm the outcome this assay logged for Cc1nnc2n(c1=O)CCCN2C ?
class 0
